- Tested on: UACC-62
- Test Protocol: NCI tumour cell line growth inhibition, 48 h
The source made the active and inactive calls. Cut-off read from the data, not from the text of the source: active = GI50 up to about 1.1 µM and inactive = higher.
Outcome codes: active, inactive

* Cc1nn(C(=O)c2ccccc2O)c2c1C(c1ccc(O)cc1)SC(=N)N2 (stereo unspecified) | active
* CC(C)C1CC=NN1C(=O)OC(C)(C)C (stereo unspecified) | inactive
* Cc1[nH]c2[nH]c(=S)nc(NC(N)=S)c2c1Cc1ccccc1 | inactive
* S=C(Nc1ccccc1)Nc1[nH]c(=S)sc1-c1nc2ccccc2[nH]1 | inactive
* CCCCCCCCCCCCCC[C@@H](O)[C@H]1CC[C@H]([C@H]2CC[C@H]([C@H](O)CCCCCC[C@@H](O)CC3=C[C@H](C)OC3=O)O2)O1 | inactive
* CN1c2ccccc2C(=O)NC12CCNCC2 | inactive
* O=C1CCCC2COc3ccc(O)c1c32 (stereo unspecified) | inactive
* CC(C)SC(=S)Sc1c(Cl)c(Cl)nc(Cl)c1Cl | inactive
* C/C(CC(=O)Nc1ccccc1C)=N/NS(=O)(=O)c1ccc(C)cc1 | inactive
* CC(C)(C)OC(=O)[C@@H]1CCC(=O)N1C1(c2ccccc2)c2ccccc2-c2ccccc21 | inactive
* O=C1c2cc3c(cc2NC(c2ccccc2F)C1O)OCO3 (stereo unspecified) | inactive
* CCC(CCCN)Nc1cc(OC)cc2cccnc12 (stereo unspecified) | inactive
* O=C/C(=C(/Br)I)c1ccccc1 | inactive
* Cc1c(Cl)c2ccccc2n1S(=O)(=O)c1ccccc1 | inactive
* C=CCc1cccc2cc(C(=O)NC3CCCCC3)c(=N)oc12 | inactive
* O=C(CC(=O)c1cccc([N+](=O)[O-])c1)C(=O)Nc1nc([N+](=O)[O-])cs1 | inactive
* O=c1/c(=C/c2cccc([N+](=O)[O-])c2)sc2nc3ccccc3n12 | active
* Cc1no[n+]([O-])c1/C=N/NS(=O)(=O)c1ccccc1 | inactive
* NC(=O)CCC(Nc1c2ccccc2[n+]([O-])c2ccccc12)C(=O)O (stereo unspecified) | inactive
* O/N=C1\CC2(N3CCOCC3)CCC1(Cc1ccccc1)CC2 | inactive
* O=P1(N(CCCl)CCCl)Oc2ccc(Cl)cc2Sc2c(ccc(Cl)c2Cl)O1 (stereo unspecified) | inactive
* O=C1c2ccccc2CC1C1(O)C(=O)Nc2ccccc21 (stereo unspecified) | inactive
* CCOP(=O)(O)C(C)(C)NC | inactive
* COc1cc(/C=C2/SC(c3ccccc3)N(c3cccc(NC(C)=O)c3)C2=O)cc(OC)c1OC (stereo unspecified) | inactive
* COP(=O)(OC)C(NC=O)P(=O)(OC)OC | inactive
* CCCCNC(=S)Nc1nc(C(=O)NNS(=O)(=O)c2ccccc2)cs1 | inactive
* O=C(NC(Cc1ccc(Br)cc1)C(=O)O)c1ccc(I)cc1 (stereo unspecified) | inactive
* Cn1c(-c2ccccc2)c2cc3nc4ccccc4nc3cc2c1-c1ccccc1 | inactive
* COC(=O)CCC(NC(=S)N/N=C/c1cccs1)C(=O)OC (stereo unspecified) | inactive
* CSc1ncnc2c1ncn2C1CC(Oc2ccc(C)cc2)C(COc2ccc(C)cc2)O1 (stereo unspecified) | inactive
* N=C(N)SCc1ccc(Cl)c2ccccc12.O=[N+]([O-])c1ccc(O)c([N+](=O)[O-])c1 | inactive
* CC[C@H]1C=CCC[C@@]2(C[C@@H]3CC[C@H]4[C@@H](C(=O)OCCCCCCCCCCCCCCCC(=O)N(CCCNC(C)=O)C[C@H](CCNC(C)=O)OC(C)=O)[C@@]5(CCC[C@@H](C)O5)NC(=[N+]34)N2)O1 | inactive
* N#Cc1c(O)nc2[nH]nc(/N=N\c3c(O)ccc4ccccc34)c2c1-c1ccc(Cl)cc1 | active
* CC1(O)C(C)(O)C2(C)O[Te]3(OC12C)OC1(C)C(C)(O)C(C)(O)C1(C)O3 (stereo unspecified) | inactive
* CCCCCCCCNC(=O)C1=C(C)NC(C)=C(C(=O)NCCCCCCCC)C1 | inactive
* O=c1oc2c(O)c(O)cc3c(=O)oc4c(O)c(O)cc1c4c23 | inactive
* COC(C/C(=C/CO[Si](C(C)C)(C(C)C)C(C)C)C(=O)Nc1ccccc1I)OC | inactive
* COc1cc(NS(C)(=O)=O)ccc1Nc1cc(C)nc2ccc3[nH]ccc3c12 | inactive
* C=C1C2CC(OC(C)=O)C3(C)C(c4ccoc4)OC(=O)[C@@H](O)[C@]13OC1C[C@H](OC(C)=O)C(C)(C)[C@H](C(O)C(=O)OC)[C@]12C (stereo partly specified) | inactive
* O=[N+]([O-])c1cc2ccc1OCc1cccc(n1)COc1ccc(cc1[N+](=O)[O-])/C=N\CCCCCCCC/N=C\2 | inactive
* N#CC(=S)Nc1cccc(Cl)c1 | inactive
